# Tested on: E. coli ATCC25922
# Type: cell-based
# experimental.parameters: ATCC25922, 24 h
One threshold, 8 mg/L, splits the recorded MIC values: lower ones are True, equal or higher ones are False.

Check out these entries, answers already filled in.
*Q* State whether 8 mg/L exceeds MIC recorded for Ac-KWKSFLKTFKSAKKTELHTALKAISS-NH2 [Peptide V16E] .
*A* False

*Q* State whether 8 mg/L exceeds MIC recorded for Ac-KWKSFLKTFKSAKKTALHTALKAISS-NH2 [Peptide V16A] .
*A* True

*Q* State whether 8 mg/L exceeds MIC recorded for Ac-KWKSFLKTFKSAKKTLLHTALKAISS-NH2 [Peptide V16L] .
*A* True

More entries:
*Q* State whether 8 mg/L exceeds MIC recorded for Ac-KWKSFLKTFKSAKKTKLHTALKAISS-NH2 [Peptide V16K] .
*A* False
